Hello, the source for this data is PubChem BioAssay AID463173, in case you need it.

# System: DeltatarO mutant
# assay.name: S. aureus survival, RN4220 and DeltatarO strains – OD600, teichoic acid synthesis inhibitors, primary screen (AID 463173)
# assay.setup: S. aureus RN4220 wild type/DeltatarO growth, OD600, 18 h, screened at 18.75 µg/mL (by protocol)
Screen size: about 52,000 compounds; about 4,300 (8.3%) were called active. Cut-off read from the data, not from the text of the source: active = survival mostly below about 52% (no sharp cut-off); inactive = mostly above about 56%. The full list was thinned out, with actives kept by preference.
Pick one: TRUE (active), FALSE (inactive)

{"compound": "COc1ccc(-c2[nH]c(-c3ccc(F)cc3)nc2SCC(=O)Nc2ccc(OC)c(OC)c2)cc1", "system.tested": "DeltatarO mutant", "label.class": "FALSE"}
{"compound": "Cc1nn(CC(=O)Nc2ccc(OC(F)(F)F)cc2)c(=O)c2c(C)n(-c3ccc(Cl)cc3)nc12", "system.tested": "DeltatarO mutant", "label.class": "TRUE"}
{"compound": "Cc1cc(-c2ccc(C)c(S(=O)(=O)NCc3cccs3)c2)on1", "system.tested": "DeltatarO mutant", "label.class": "FALSE"}
{"compound": "Cc1c(Cl)cccc1NC(=O)Nc1nnc(N2CCCCCC2)s1", "system.tested": "DeltatarO mutant", "label.class": "FALSE"}
{"compound": "CC1CCCC(C)N1C(=O)CN1CCC(N2CCCCC2)CC1 (stereo not given)", "system.tested": "DeltatarO mutant", "label.class": "FALSE"}

How did this test come out for Cc1ccc(S(=O)(=O)C(CNC(=O)c2ccc(C(F)(F)F)cc2)c2ccco2)cc1 (stereo not given) ?
FALSE

Given CCOc1ccccc1CNC(=O)Cn1nc(C)c2nn(-c3ccc(Cl)cc3)c(C)c2c1=O , state the outcome it received in this test.
FALSE

Identify the outcome logged in this assay for the compound shown: Cc1ccccc1CNC(=O)CN1C(=O)CSc2ccc(S(=O)(=O)N(C)C)cc21
FALSE

Answer briefly: the call reported for CCOc1ccc(NC(=O)Cn2c(=O)n(Cc3ccc(C(=O)NCc4ccc(C)cc4)cc3)c(=O)c3ccccc32)cc1 in this assay.
FALSE

// outcome(item) with item = COc1ccc(CNCC#N)cc1OC
FALSE

Lab log entry: CC(C)NC(=O)c1ccc2c(c1)nc1n2CCCCC1 — outcome as called in the assay?
FALSE

Just curious, what result did COc1ccccc1CNC(=O)Cn1nc(C)c2nn(-c3ccc(Cl)cc3)c(C)c2c1=O get here?
FALSE

Given CC(C)(C)c1ccc(C(=O)NCC(c2ccco2)S(=O)(=O)c2ccccc2)cc1 (stereo not given) , state the outcome it received in this test.
FALSE

Name the outcome recorded for COc1ccc(C(=O)NCC(c2ccco2)S(=O)(=O)c2ccc(F)cc2)cc1 (stereo not given) in the assay.
FALSE

Status in this test for CCc1ccc(NC(=O)CSc2nc(C)c(C(=O)Nc3ccc(Cl)cc3)c(-c3ccc(OC)cc3)c2C#N)cc1 ?
FALSE

What is the recorded call for this compound in the test? CCOC(=O)c1ccc(NC(=O)Cn2nc(C)c3nn(-c4ccc(Cl)cc4)c(C)c3c2=O)cc1
FALSE

Test call for this compound, please: Cc1cc(C)cc(Oc2nc3ccccn3c(=O)c2/C=C(\C#N)c2nc3ccccc3s2)c1
FALSE

* * *

Item-by-item account of survival
# System: DeltatarO mutant
# assay.name: S. aureus survival, RN4220 and DeltatarO strains – OD600, teichoic acid synthesis inhibitors, primary screen (AID 463173)
# assay.setup: S. aureus RN4220 wild type/DeltatarO growth, OD600, 18 h, stronger effect = lower value, screened at 18.75 µg/mL (by protocol)
The whole screen tested about 52,000 compounds, of which about 4,300 (8.3%) were called active. What follows is part of a selection rich in actives, with near analogues and random picks from the rest.
Write the answer as a number in %, unit excluded.

Some entries whose results are on file:
{"compound": "Cc1ccc(C(=O)c2oc3ccccc3c2NC(=O)C(C)Oc2ccccc2Cl)cc1 (configuration not stated)", "system.tested": "DeltatarO mutant", "survival, %": 40}
{"compound": "COc1ccc(NS(=O)(=O)c2ccc(-c3cnc(C4CC4)o3)cc2)cc1Cl", "system.tested": "DeltatarO mutant", "survival, %": 124}
{"compound": "Cc1cccc(Cn2c(-c3ccccc3)nc3ccccc32)c1", "system.tested": "DeltatarO mutant", "survival, %": -2}

Considering CCCn1c2ccccc2c2cnn(CC(=O)N3CCC(C)CC3)c(=O)c21 , its survival with DeltatarO mutant was recorded as 76

Case CCOc1ccc(CNC(=O)c2cnc3sc(N4CCCCCC4)nn3c2=O)cc1OC , DeltatarO mutant, survival recorded as 83

Entry CC(=O)Nc1nonc1-c1nnc(SCC(=O)Nc2cc(C)cc(C)c2)n1-c1ccccc1 under DeltatarO mutant had survival of 50

Entry Cc1ccc2[nH]c(=O)c3cc(C(=O)N(CCCOC(C)C)Cc4ccco4)sc3c2c1 , DeltatarO mutant data, survival value: 56

GET /values?item= CCC(O)c1nc2ccccc2n1Cc1cccc(Cl)c1 (configuration not stated) &system= DeltatarO mutant returns survival: 83

# COc1ccc(Cn2ccc3nc(C)c(C(=O)N4CCN(c5ccccc5F)CC4)cc3c2=O)cc1 with DeltatarO mutant: survival is 63

Value (survival, DeltatarO mutant) for record O=C(Cn1ncc2c3ccccc3n(Cc3ccc(Cl)cc3)c2c1=O)N1CCCCCC1 = 84

Value (survival, DeltatarO mutant) for record CC(=O)Nc1nonc1-c1nnc(SCC(=O)Nc2cccc(C)c2C)n1-c1ccccc1 = 61

// survival (DeltatarO mutant) for CCn1c(=O)c2cc(C(=O)N(CCCOC(C)C)Cc3ccco3)sc2c2ccccc21 = 8

Reported DeltatarO mutant survival for item Fc1ccc(Cn2c(-c3cccc(Br)c3)nc3ccccc32)cc1 was 109

Field survival (system: DeltatarO mutant) for entry CCn1c(=O)c2cc(C(=O)N(CCN(C)C)Cc3ccccc3)sc2c2ccccc21 = 77

Simply: CCc1nc2cccnc2n1-c1ccc(CC(=O)Nc2ccc(C)cc2)cc1 , DeltatarO mutant, survival = 78

Kindly note: DeltatarO mutant, CCOc1ccc(C2CC(=O)Nc3c2c(=O)nc(SCc2ccccc2C)n3C)cc1OC (configuration not stated) , survival value reported: 42

Tested on DeltatarO mutant: Nc1nonc1-c1nc2ccccc2n1Cc1cccc(Cl)c1 . Observed survival: 80

Measured survival for this entry Cc1ccc(C)c(CSC2=NC(C)(C)Nc3ccccc32)c1 on DeltatarO mutant: 80

Known value: DeltatarO mutant survival of the compound Fc1ccccc1Cn1c(-c2ccccc2)nc2ccccc21 equals 1

* * *

Entries and their survival values follow.
# Tested on: DeltatarO mutant
# assay.name: S. aureus survival, RN4220 and DeltatarO strains – OD600, teichoic acid synthesis inhibitors, primary screen (AID 463173)
# assay.setup: S. aureus RN4220 wild type/DeltatarO growth, OD600, 18 h, stronger effect = lower value, screened at 18.75 µg/mL (by protocol)
In all, about 52,000 compounds went through this assay and about 4,300 (8.3%) were called active. The full list was thinned out, with actives kept by preference.
Write down the numeric answer in % and omit the unit.

Completed entries (count: 5):
{"compound": "CCOC(=O)N1CCc2c(sc3c2c(=O)n(Cc2ccccc2)c(=O)n3CC(=O)Nc2cccc(CC)c2)C1", "survival (%)": 71}
{"compound": "O=C(N1CCCC1)N1c2ccccc2Sc2ccccc21", "survival (%)": 111}
{"compound": "COc1ccc(OC)c(NC(=O)N2c3ccccc3Sc3ccccc32)c1", "survival (%)": 5}
{"compound": "O=C(O)c1ccccc1NC(=O)N1c2ccccc2Sc2ccccc21", "survival (%)": 40}
{"compound": "CC(NC(=O)c1nn(C)c2c1CSc1ccccc1-2)c1ccccc1 (stereo unspecified)", "survival (%)": 76}

# ---- query compound ----
Entry O=C(CN1CCCC1)N1c2ccccc2Sc2ccccc21 — recorded survival = 88

* * *

# Tested on: DeltatarO mutant
# assay.name: S. aureus survival, RN4220 and DeltatarO strains – OD600, teichoic acid synthesis inhibitors, primary screen (AID 463173)
# assay.setup: S. aureus RN4220 wild type/DeltatarO growth, OD600, 18 h, stronger effect = lower value, screened at 18.75 µg/mL (by protocol)
The whole screen tested about 52,000 compounds, of which about 4,300 (8.3%) were called active. The sample as a whole holds a higher share of actives than the screen did.
Measured survival accompanies every entry in the list below.
Number in %, nothing else.

Below, 10 molecules whose answers are already recorded.
{"molecule": "CCc1ccc(CN(C(=O)c2cc(=O)c3ccc(C)cc3o2)C2CCS(=O)(=O)C2)cc1 (stereo not given)", "measured": 107}
{"molecule": "CCOc1ccc(-c2nc3c(c(CC)nn3-c3ccccc3)c3cc(OC)c(OC)cc23)cc1", "measured": 78}
{"molecule": "Cc1ccc(-c2nsc(NC(=O)c3oc4cc(C)c(Cl)cc4c3C)n2)cc1", "measured": 74}
{"molecule": "CCOC(=O)c1ccc(NC(=O)CCc2c(C)nc3c(c(C)nn3C(C)(C)C)c2C)cc1", "measured": 55}
{"molecule": "O=C(Cn1c(=O)nc(-c2ccccc2F)c2cc(Cl)ccc21)Nc1ccccc1C(F)(F)F", "measured": 96}
{"molecule": "Cc1ccc(C)c(NS(=O)(=O)c2ccc3c4c(cccc24)C(=O)N3)c1", "measured": 52}
{"molecule": "Cc1cccc(N2CCN(C(=O)CCNS(=O)(=O)c3ccc4c(c3)CCN4C(=O)C3CC3)CC2)c1C", "measured": 73}
{"molecule": "CCOc1ccc(C(=O)Nc2nc(-c3ccc(Br)cc3)ns2)cc1", "measured": 76}
{"molecule": "CCOC(=O)c1ccc(NC(=O)CCc2c(C)nc3c(c(C)nn3C)c2C)cc1", "measured": 93}
{"molecule": "Cn1c(SCC(=O)N2CCOCC2)ncc(C(=O)Nc2ccc(F)cc2)c1=O", "measured": 87}

survival in this record for Cc1ccc2oc(=O)c3cnn(CC(=O)Nc4cccc(C(F)(F)F)c4)c3c2c1 : 87

Please fill in: survival reported for COC(=O)c1ccc(NC(=O)CCc2c(C)nc3c(c(C)nn3C(C)(C)C)c2C)cc1 = 59

According to the records, this molecule CCCOc1ccc(CN(C(=O)c2cc(=O)c3ccc(C)cc3o2)C2CCS(=O)(=O)C2)cc1 (stereo not given) displays survival of 36

The molecule identified as COc1ccc(C)cc1NS(=O)(=O)c1ccc2c3c(cccc13)C(=O)N2 registered its survival at 58

// CCOc1ccc(CN(C(=O)c2cc(=O)c3cc(Cl)ccc3o2)C2CCS(=O)(=O)C2)cc1 (stereo not given) : survival value = 104
